# assayedTarget: T1, human CTLA4 (CTLA-4), full-length, on CHO cells (human, UniProt P16410 36-223)
# T1 construct: also called huCTLA4
# T1 sequence (P16410 36-223): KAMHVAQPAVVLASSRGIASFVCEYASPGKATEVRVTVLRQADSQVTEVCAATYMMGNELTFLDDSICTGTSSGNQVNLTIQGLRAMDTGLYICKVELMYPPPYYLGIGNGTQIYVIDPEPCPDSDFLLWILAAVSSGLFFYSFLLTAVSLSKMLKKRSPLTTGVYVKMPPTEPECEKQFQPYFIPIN
# experiment: flow cytometry, CHO/CTLA4 cells; MFI relative to WT CD80 ECD-Fc
Hi there, I'd appreciate the recorded Fold change to WT CD80 for every entry that follows.

Input line: Recall and state the measured Fold change to WT CD80 for variant CD80 IgV-Fc E35D/M47V (Fc fusion, not shown: small tags and cut ends; a dimerising Fc or GST) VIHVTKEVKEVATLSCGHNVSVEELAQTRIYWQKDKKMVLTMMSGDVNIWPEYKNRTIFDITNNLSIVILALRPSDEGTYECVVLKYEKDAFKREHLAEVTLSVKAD .
Output line: 1.1 fold

Input line: Recall and state the measured Fold change to WT CD80 for variant CD80 IgV-Fc E35D/K89N (Fc fusion, not shown: small tags and cut ends; a dimerising Fc or GST) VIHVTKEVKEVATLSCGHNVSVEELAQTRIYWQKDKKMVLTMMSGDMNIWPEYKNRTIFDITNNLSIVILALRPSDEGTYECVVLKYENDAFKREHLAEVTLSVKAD .
Output line: 0.5 fold

Input line: Recall and state the measured Fold change to WT CD80 for variant CD80 IgV-Fc D46V/M47L/V68M (Fc fusion, not shown: small tags and cut ends; a dimerising Fc or GST) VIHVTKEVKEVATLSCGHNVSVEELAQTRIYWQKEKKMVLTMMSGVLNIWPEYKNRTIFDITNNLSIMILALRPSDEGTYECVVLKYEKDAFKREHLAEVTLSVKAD .
Output line: 0.9 fold

Input line: Recall and state the measured Fold change to WT CD80 for variant CD80 IgV-Fc D46V/V68M (Fc fusion, not shown: small tags and cut ends; a dimerising Fc or GST) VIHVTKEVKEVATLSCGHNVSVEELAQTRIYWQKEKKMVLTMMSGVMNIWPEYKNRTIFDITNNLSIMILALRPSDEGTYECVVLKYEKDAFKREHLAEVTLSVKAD .
Output line: 0.1 fold
